ASSAY: qHTS assay to identify small molecule antagonists of the estrogen receptor alpha (ER-alpha) signaling pathway using the BG1 cell line in the presence of 0.1 nM 17-beta-estradiol - cell viability counter screen (AID 1259241); further: nearly all actives have a fitted effect of over 40% in size; further: potency means the concentration at half of the fitted maximal effect
PARTICULARS: VM7Luc4E2 (BG1) viability, CellTiter-Fluor protease, 22 h, 0.1 nM estradiol agonist added; series mostly up to 92.4 µM
Text: National Center for Advancing Translational Sciences [NCATS] NIH Chemical Genomics Center [NCGC] U.S. Environmental Protection Agency [EPA] National Institutes of Environmental Health Sciences [NIEHS] National Toxicology Program [NTP] U.S. Food and Drug Administration [FDA] Estrogen receptor (ER), a member of the nuclear hormone receptor plays an important role in development, metabolic homeostasis and reproduction. […]
Records with an inconclusive call do not appear. Calls of active or inactive are those of the source. The call rests on the fitted dose curve; in most records, active means well fitted cell-killing curve with a large enough effect in the repeat runs; inconclusive means weak or mixed curves, or effect the other way; inactive means flat fitted curve, though single readings scatter.

COMPOUND	Potency
CCOC(=O)COc1ccc(C)cc1	inactive
CCN(CC)CCOc1ccc(C(O)(Cc2ccc(Cl)cc2)c2ccc(C)cc2)cc1 (stereo unspecified)	inactive
O=C(O)Cc1ccc(OCCNC[C@H](O)c2ccccc2)cc1	inactive
CCc1cccc(CC)c1NC(=O)C(=O)O	inactive
Cc1cc(Nc2ccc(O)cc2)ccc1N	27.2 µM (active)
CC(C)=CCCC(C)O (stereo unspecified)	inactive
CC(C)=CCCC(C)CCOC(=O)C(C)C (stereo unspecified)	inactive
O=C1C=CC(=O)N1c1ccccc1	61.1 µM (active)
COCC(=O)O[C@]1(CCN(C)CCCc2nc3ccccc3[nH]2)CCc2cc(F)ccc2[C@@H]1C(C)C	inactive
CC1CNCC(C)O1 (stereo unspecified)	inactive
CNC(=S)NN	inactive

====

TEST_TARGET: Aromatase (Homo sapiens)
ASSAY: qHTS assay to identify aromatase inhibitors (AID 743083); further: nearly all actives have a fitted effect of over 55% in size
PARTICULARS: MCF-7 aro ERE, testosterone-driven ERE luciferase, 24 h; series mostly up to 70.3 µM
Inconclusive results are not listed. Active and inactive are the calls of the source. Calls come from the whole dose curve; as a rule, active = well fitted inhibition curve with a large enough effect in the repeat runs; inconclusive = weak or mixed curves; inactive = no such curve, though single readings can be large or run the other way.
Outcome codes: active, inactive

COMPOUND	LABEL
c1cc2c3c(c1)ccc1cccc(c13)C2	inactive
CCOC(=O)COc1ccc(C)cc1	inactive
O=C1c2c(O)ccc(O)c2C(=O)c2c(NCCNCCO)ccc(NCCNCCO)c21	active
CCN(CC)CCNc1ccc(CO)c2sc3ccccc3c(=O)c12	inactive
C=CC(C)(CCC=C(C)C)OC(=O)/C=C/c1ccccc1 (configuration not stated)	inactive
O=C1Nc2ccc(Cl)cc2[C@@](C#CC2CC2)(C(F)(F)F)O1	active
C[n+]1c2cc(N)ccc2cc2ccc(N)cc21 (tested in a mixture with another compound)	active

====

ASSAY: qHTS assay to identify small molecule antagonists of the sonic hedgehog signaling (Shh) pathway (AID 1259369); further: nearly all actives have a fitted effect of over 45% in size
PARTICULARS: NIH/3T3 Gli1-Luc reporter, Shh antagonist, luminescence 24 h; series mostly up to 92.4 µM
Results filed as inconclusive are left out. Calls of active or inactive are those of the source. The call rests on the fitted dose curve.
Outcome codes: 1 for active, 0 for inactive

MOLECULE	LABEL
CCCCCCOc1cc(C)c(O)c(C)c1C	1
CC(C)(C)c1cc(CCC(=O)NCCCCCCNC(=O)CCc2cc(C(C)(C)C)c(O)c(C(C)(C)C)c2)cc(C(C)(C)C)c1O	0
C/C=C/CO	0
CC(C)=CCCC(C)CCOC(=O)C(C)C (stereo unspecified)	0
Cn1cnc2ncnc(N)c21	0
CCCCCCCC(C)=O	0
C(=C/c1ccccc1)/c1ccccc1	0
CCCCCCCCCCCCCOP(=O)(O)O	0
CCCCCCCC/C=C\CCCCCCCC(=O)OCCOC(=O)CCCCCCC/C=C\CCCCCCCC	0
Clc1cccnc1	0
CCc1ccc(C)nc1	0
C=C1C(C)(C)[C@@]2(Cl)C(Cl)[C@]1(Cl)C(Cl)(Cl)C2(Cl)Cl (stereo partly specified)	1
O=C1NC2CCCCN2C12CCN(CCCN1c3ccccc3CCc3ccc(Cl)cc31)CC2 (stereo unspecified)	1
COc1nccnc1CC(C)C	0
CSc1c(Cl)c(Cl)c(Cl)c(Cl)c1Cl	0
Cc1cnccn1	0

====

ASSAY: qHTS assay to identify small molecule agonists of H2AX - cell viability counter screen (AID 1224847); further: nearly all actives have a fitted effect of over 30% in size
PARTICULARS: CHO-K1 viability, CellTiter-Glo luminescence, 3 h; series mostly up to 154 µM
Results filed as inconclusive are left out. Calls of active or inactive are those of the source. Calls follow the shape of the full dose curve.
Outcome codes: active, inactive

COMPOUND	LABEL
CCc1ccc(O)c(C(C)(C)C)c1	active
COC(=O)CC#N	inactive
CC(C)=CCCC(C)O (configuration not stated)	inactive
CCOC(=O)COc1ccc(C)cc1	inactive
O=Nc1ccc(NO)cc1	inactive
C#CC(O)CCC (configuration not stated)	inactive
O=C1NCCN1CCN1CCC(c2cn(-c3ccc(F)cc3)c3ccc(Cl)cc23)CC1	active
O=C(O)Cc1ccc(OCCNC[C@H](O)c2ccccc2)cc1	inactive
CCO[Si](C)(C)OCC	inactive
CCCCCCCC(OC)OC	inactive
OCCCc1cccnc1	inactive
CN(C)CCN1CCOCC1	inactive
C/C=C/C(=O)C1=C(C)CCCC1(C)C	inactive
C=CC/C=C/C/C=C/C/C=C/C	inactive
CCCCCCCCCCCCCc1ccccc1	inactive
Brc1ccccn1	inactive
OCCC(O)CO (configuration not stated)	inactive
CC[N+](CC)(CC)Cc1ccccc1	inactive
CC(C)c1cccc(C(C)C)c1N1C(=O)c2ccc(O)cc2C1=O	active
CC(=O)Nc1ccc(O)cc1	inactive
CCCCCCCCCCCCN(CCO)CCO	active
Clc1cccnc1	inactive
CC(C)(C)C1=CC(=O)C=C(C(C)(C)C)C1=O	inactive
COc1cc(C(=O)NS(=O)(=O)c2ccccc2C)ccc1Cc1cn(C)c2ccc(NC(=O)OC3CCCC3)cc12	inactive
CC(C)c1ccc(O)c(C(C)C)c1	active
OCCCCl	inactive
CCNc1nc(NC(C)CC)nc(OC)n1 (configuration not stated)	inactive

====

TEST_TARGET: Cytochrome P450 1A2 (Homo sapiens)
ASSAY: Cytochrome P450 Family 1 Subfamily A Member 2 (CYP1A2) small molecule antagonists: luciferase reporter qHTS assay (AID 1671199); further: nearly all actives have a fitted effect of over 50% in size
PARTICULARS: P450-Glo CYP1A2 enzyme, luciferin luminescence, 1 h; series mostly up to 115 µM
Results filed as inconclusive are left out. The source made the active and inactive calls. Calls follow the shape of the dose curve; as a rule, active = well fitted inhibition curve with a large enough effect in the repeat runs; inconclusive = weak or mixed curves; inactive = no such curve, though single readings can be large or run the other way.
Outcome codes: active, inactive

MOLECULE	LABEL
CCCCCCCCCCCCCc1ccccc1	inactive
CCOB(OCC)OCC	inactive
c1cc2c3c(c1)ccc1cccc(c13)C2	active
c1cc[nH]c1	inactive
CCC1(c2cnc[nH]2)Cc2ccccc2C1	active
CCCCCCOc1ccc(O)cc1	active
Oc1cc2ccccc2cc1O	active
CCCCCCCCCCCCN(CCO)CCO	active
CC(C)c1ccccc1N	inactive
C/C=C/C(=O)Oc1c(CCCCCC(C)C)cc([N+](=O)[O-])cc1[N+](=O)[O-]	active

====

ASSAY: qHTS assay to identify small molecule antagonists of the glucocorticoid receptor (GR) signaling pathway - cell viability counter screen (AID 720693); further: nearly all actives have a fitted effect of over 55% in size
PARTICULARS: GR-bla HeLa viability, CellTiter-Glo luminescence, 18 h, with 5 nM dexamethasone present; series mostly up to 58.5 µM
Records with an inconclusive call do not appear. Calls of active or inactive are those of the source. Calls come from the whole dose curve; as a rule, active = well fitted cell-killing curve with a large enough effect in the repeat runs; inconclusive = weak or mixed curves, or effect the other way; inactive = no such curve, though single readings can be large or run the other way.
Outcome codes: yes for active, no for inactive

MOLECULE	LABEL
Clc1ccccc1CN1CCc2sccc2C1	no
CCCCCCCC/C=C\CCCCCCCC(=O)N(C)CC(=O)O	yes
CC(=O)Oc1ccc(C2(c3ccc(OC(C)=O)cc3)C(=O)Nc3ccccc32)cc1	no
CNC(=S)NN	no
Cc1ccc2ccc3cccc4ccc1c2c34	no
Clc1ccc(C(Cn2ccnc2)OCc2c(Cl)cccc2Cl)c(Cl)c1 (stereo not given)	no
O=C1OC(OC(=O)c2cccnc2Nc2cccc(C(F)(F)F)c2)c2ccccc21 (stereo not given)	no
CCOC(=O)[C@@](C)(N)Cc1ccc(O)c(O)c1	no
NCCCCCCNCCCCCCN	no
C[C@@]12C(=O)OC(=O)[C@]1(C)C1CCC2O1	yes
CC(C)N=C(N)/N=C(\N)Nc1ccc(Cl)cc1	no
COc1cc(C(C)C)c2c(c1)S(=O)(=O)N(COc1cc(=O)n3cccc(OCCN4CCCCC4)c3n1)C2=O	no
CCCCN(CCCC)CCC(O)c1cc2c(Cl)cc(Cl)cc2c2cc(C(F)(F)F)ccc12 (stereo not given)	no
CCCCCCCOC(=O)c1ccc(O)cc1	yes
[O]=[Zr]	no
Cc1cc(Nc2ccc(O)cc2)ccc1N	no
CC1=C(/C=C/C(C)=C/C=C/C(C)=C/C(=O)Nc2ccc(O)cc2)C(C)(C)CCC1	yes
CO[C@H]1C=CO[C@@]2(C)Oc3c(C)c(O)c4c(O)c(cc(O)c4c3C2=O)NC(=O)/C(C)=C\C=C/[C@H](C)[C@H](O)[C@@H](C)[C@@H](O)[C@@H](C)[C@H](OC(C)=O)[C@@H]1C	no
Cc1c(-c2ccc(O)cc2)n(Cc2ccc(OCCN3CCCCCC3)cc2)c2ccc(O)cc12	no
S=C(SSSSSSC(=S)N1CCCCC1)N1CCCCC1	no
Oc1ccc(-c2ccccc2)c(Cl)c1	no
CCCCCCOc1cc(C)c(O)c(C)c1C	yes
O=C(O)CCn1c2c(c3ccccc31)C[C@H](NS(=O)(=O)c1ccc(F)cc1)CC2	no
CCCCCCCCCCCCN(CCO)CCO	yes
SCCCCCCCCS	no
c1cc2c3c(c1)ccc1cccc(c13)C2	no
CCCCOC(=O)C(C)CC (stereo not given)	no
CCCCCCC(C)Nc1ccc(Nc2ccccc2)cc1 (stereo not given)	yes
S=P(N1CC1)(N1CC1)N1CC1	no
COc1cc(C=C2CCC/C(=C\c3ccc(O)c(OC)c3)C2=O)ccc1O	yes
CCCSS/C(CCO)=C(\C)N(C=O)Cc1cnc(C)nc1N	no
Nc1ncnc2c1ncn2[C@@H]1O[C@H](COP(=O)(O)O)[C@@H](O)[C@H]1O	no
CCCCC(CC)COC(=O)c1ccc(O)cc1 (stereo not given)	yes
c1ccc(Sc2ccccc2)cc1	no
Oc1ccc(-c2ccc(O)cc2)cc1	no
CCCCCCCCCCCCCCNCCO	no
CC=O	yes
Nc1ccc2cc3ccc(N)cc3nc2c1	yes
CC(C)c1ccc(O)c(C(C)C)c1	no
CC(C)(C)CC(C)(C)c1ccccc1O	yes
c1ccc(Nc2cccc3ccccc23)cc1	yes
CC(C(O)c1ccccc1)N(C)CCOC(c1ccccc1)c1ccccc1 (stereo not given)	no
CCCCCCOc1ccc(O)cc1	no
Brc1ccccc1-c1ccccc1	no
COc1ccccc1OCCNCC(O)COc1cccc2[nH]c3ccccc3c12 (stereo not given)	no
